Test system: biotinyl-Met-oxazolone
Test Details: self-aminoacylation, catalytic enhancement (BMO) (fold over background); higher = more active; k-Seq, kA / k0A0; sequences stand for … in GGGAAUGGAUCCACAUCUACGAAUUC…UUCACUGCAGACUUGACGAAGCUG
Fewer inactive variants are shown than the library holds.
Tag: condition met if measured self-aminoacylation is not below 3, condition not met if it is.

Check this sequence for self-aminoacylation at or above 3: AUUCACCUAGGCCAUCGCGUG [Fam2.2 aminoacylation ribozyme variant]
condition met

Check this sequence for self-aminoacylation at or above 3: GUGCUUCAAACAAUCGGUCUG [Fam1A.1 aminoacylation ribozyme variant]
condition not met

Check this sequence for self-aminoacylation at or above 3: AUUCGCCUAGGUCCUCGGGUG [Fam2.2 aminoacylation ribozyme variant]
condition met

Check this sequence for self-aminoacylation at or above 3: CCACACAUCAAGCUAUCGGUC [Fam1B.1 aminoacylation ribozyme variant]
condition not met

Check this sequence for self-aminoacylation at or above 3: CUACUCCAACCAAUCGGUCUG [Fam1A.1 aminoacylation ribozyme variant]
condition not met

Check this sequence for self-aminoacylation at or above 3: AGGUUUGGUAAUAGUCGCAAG [Fam3.1 aminoacylation ribozyme variant]
condition not met

Check this sequence for self-aminoacylation at or above 3: CCACAUUUUAAGCAAUCGGUC [Fam1B.1 aminoacylation ribozyme variant]
condition not met

Check this sequence for self-aminoacylation at or above 3: CUUCACCUAGGUCAUCAGGUG [Fam2.2 aminoacylation ribozyme variant]
condition not met

---

Tested on: biotinyl-Ile-oxazolone
Test Details: self-aminoacylation, catalytic enhancement (BIO) (fold over background); higher = more active; k-Seq, kA / k0A0; sequences stand for … in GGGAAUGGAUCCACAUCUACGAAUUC…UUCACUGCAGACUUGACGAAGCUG
Variants at the floor of the assay were thinned out.
Property Name: self-aminoacylation
// keep it numeric: no unit symbol after the value

Sample records with self-aminoacylation:
                              item_sequence  value_measured
0  CUACUUCAAACAAUCGGUGUA [Fam1A.1 aminoacylation ribozyme variant]           0.983
1  UAGUUUGCUAAGAGUCGCAAG [Fam3.1 aminoacylation ribozyme variant]            1.12
2  AUUCCCCUAAGUCAUCGGGUG [Fam2.2 aminoacylation ribozyme variant]            38.6
3  AUGCACUUAGGUCAUCGGGUG [Fam2.2 aminoacylation ribozyme variant]            5.29
4  UUACUUCACACAAUCGGUCUG [Fam1A.1 aminoacylation ribozyme variant]            1.27
5  CUACUGCAAACAAUCGGGCUG [Fam1A.1 aminoacylation ribozyme variant]            1.74
6  AUUACCCUGGUCAUCGUGGGA [Fam2.1 aminoacylation ribozyme variant]            1.18
7  AUUACCCUGGUCAUCGAGCGA [Fam2.1 aminoacylation ribozyme variant]            2.15
8  AUUCACCCAGGGCAUCGGGUG [Fam2.2 aminoacylation ribozyme variant]            3.62
9  AAGUUUGCUAAUAGUCACAAG [Fam3.1 aminoacylation ribozyme variant]            1.47

// switching to the query sequence
Note to self: self-aminoacylation of UCACACUUCAAGCAAUCGGAC [Fam1B.1 aminoacylation ribozyme variant] with biotinyl-Ile-oxazolone was 0.844
